Value source: patent US20150191459A1

Kindly supply the reported Ki values for the records listed here.
SYSTEM NAME: Human cathepsin B (Homo sapiens)
ASSAY OVERVIEW: Cathepsin B Assay
Assay type: biochemical
TEST CONTEXT: apparent inhibition constant; Boc-Leu-Arg-Arg-AMC substrate; pH 6; 30 minutes pre-incubation; read-out: cat B Ki
Numbers only, in nM.

> print(dat)
                               smiles.entry  result.value
1  N#CC1(NC(=O)[C@H](Cc2cc(I)c(O)c(I)c2)N[C@@H](c2ccc(Br)cc2)C(F)(F)F)CC1            13
2  CC[C@H](NC(=O)[C@H](Cc1cc(I)c(O)c(I)c1)N[C@@H](c1ccc(F)cc1)C(F)(F)F)C(=O)C(=O)NC1CC1          1.16
3  N#CC1(NC(=O)[C@H](Cc2cc(Cl)c(O)c(Cl)c2)N[C@@H](c2ccc(Br)cc2)C(F)(F)F)CC1            45

Okay, now this molecule:
Q: Entry CC[C@H](NC(=O)[C@H](Cc1cc(Cl)c(O)c(Cl)c1)N[C@@H](c1ccc(Br)cc1)C(F)(F)F)C(=O)C(=O)NC1CC1 , system Human cathepsin B (Homo sapiens): what Ki was measured?
Result: 1.53
